Target: CDK4 (Homo sapiens, UniProt P11802)
Sequence (P11802 whole entry): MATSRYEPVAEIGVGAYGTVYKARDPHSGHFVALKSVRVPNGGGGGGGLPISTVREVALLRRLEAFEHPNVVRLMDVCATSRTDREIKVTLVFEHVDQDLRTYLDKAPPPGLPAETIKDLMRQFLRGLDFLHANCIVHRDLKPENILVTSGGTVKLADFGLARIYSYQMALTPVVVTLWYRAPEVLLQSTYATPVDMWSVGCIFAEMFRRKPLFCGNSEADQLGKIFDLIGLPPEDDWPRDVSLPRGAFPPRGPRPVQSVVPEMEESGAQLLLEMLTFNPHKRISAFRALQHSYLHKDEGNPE
Sequence (P30281 whole entry partner): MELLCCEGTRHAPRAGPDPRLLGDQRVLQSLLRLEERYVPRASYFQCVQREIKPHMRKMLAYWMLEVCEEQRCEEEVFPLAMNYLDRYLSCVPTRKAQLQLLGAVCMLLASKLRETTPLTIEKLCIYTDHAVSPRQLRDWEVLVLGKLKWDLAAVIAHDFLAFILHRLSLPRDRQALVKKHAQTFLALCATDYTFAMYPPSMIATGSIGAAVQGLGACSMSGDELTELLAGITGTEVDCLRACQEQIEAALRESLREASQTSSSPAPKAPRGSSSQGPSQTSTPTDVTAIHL
pIC50: −log10 of the molar value.
PROPERTY MEASURED: pIC50

INSERT INTO measurements (mol_smiles, experimental_system, value) VALUES
  ('CC(=O)Nc1cc(Cl)cc(Nc2nc(N[C@@H]3CCCC[C@@H]3N)nc3c2ncn3C(C)C)c1', 'CDK4 (Homo sapiens, UniProt P11802)', 6.21);
